Tested on: RPMI-8226 leukemia
Test: NCI-60 one-dose screen, 48 h
Details: 10 µM unless noted
About 83,000 compounds went through this panel and 20% of them were active in at least one assay; those are over-represented in the sample as a whole. Activity calls are given as the source filed them. How the source made its calls: active means growth percent below 10; inactive means the rest.
// classify into active, inactive

Use these answered entries as a reference point.
chem_smiles=Cc1cc(C(=O)Nc2sc3c(c2C(N)=O)CCC(=O)C3)ccc1OCCN1CCCCC1 label=inactive
chem_smiles=COc1cc(-c2nc3ccc(-c4nnc(SCC(=O)Nc5ccc(C(=O)/C=C/c6ccc(Cl)cc6)cc5)o4)cc3[nH]2)cc(OC)c1OC label=inactive
chem_smiles=CC(C)(C)OC(=O)N1C(=O)c2c(c3c4ccccc4[nH]c3c3ccc4ccccc4c23)C1=O label=inactive

Below: the item to evaluate.
Query: How did this test come out for "CN(C)c1ccc(-c2c(NC(C)(C)C)nc3c(OCCc4ccccc4)cccn23)cc1" ?
Reply: active

----------
Test system: NCI-H522 lung
Assay: NCI-60 one-dose screen, 48 h (100 = growth as untreated, 0 = no growth, -100 = all killed)
Settings: 10 µM unless noted
The panel holds about 83,000 compounds, 20% with a hit somewhere; the sample as a whole holds those more often.
Field: growth. Provide a value for each of the molecules that follow.
Give bare numbers, in %.

chem_smiles=CC1=C(C)C(=O)C(Nc2ccccc2)=C(Cl)C1=O number=83.5

Working through the 4 molecules below one at a time, give growth for each.
1. CCN(CC)c1ccc(C=O)c(OCc2cn(CC(=O)Nc3ccc(Cl)cc3)nn2)c1
2. O=C(CSc1nnc(-c2ccc3nc(-c4ccc(Cl)cc4)[nH]c3c2)o1)Nc1ccc(C(=O)/C=C/c2ccc(Cl)cc2)cc1
3. CNC(=O)c1cc(-c2ccc(NC(=O)Nc3ccc(N4CCOCC4)c(C(F)(F)F)c3)cc2)nc2cccnc12
4. COc1ccc(-c2cc(C(=O)N=Nc3c(O)[nH]c4ccccc34)c3ccccc3n2)cc1OC

Reply:
1: 80.9; 2: 88.4; 3: 65.5; 4: 90.2

----------
Tested on: MCF7 breast
Experiment: NCI-60 one-dose screen, 48 h
Conditions: 10 µM unless noted
Compounds without any hit were thinned out: in the full panel of roughly 83,000, 20% have a hit. The source made the active and inactive calls. How the source made its calls: active means growth percent below 10; inactive means the rest.
# valid calls are active, inactive; nothing else

These recorded examples may help you get a feel for the data.
compound=Nc1ncc(-c2ccc3ncnc(N4CCc5cc(F)c(Cl)cc54)c3c2)cc1CO target_or_test_system="MCF7 breast" label=active
compound=Cc1ccccc1NC(=O)/C=C/c1ccc(OCCOc2ccc3c(C)cc(=O)oc3c2)cc1 target_or_test_system="MCF7 breast" label=inactive

Continue with the compound presented below.
Query: Fill in: this test's call for "CN(C)CCCNc1c2ccc(Cl)cc2nc2c1oc1ccccc12" is ___
Reply: active

----------
System: EKVX NSCLC
Test: NCI-60 one-dose screen, 48 h
Conditions: 10 µM unless noted
This is part of a sample that, as a whole, favours compounds with a hit. Of some 83,000 tested, about 20% had one in any assay. Active and inactive are the calls of the source. How the source made its calls: active means growth percent below 10; inactive means the rest.
A correct response names exactly one class from y (active), n (inactive)

Field: example entries. Status: answers known.
molecule="Nc1nc(N)c2c(n1)NC(c1ccc(C(F)(F)F)cc1)CC(c1ccc(Nc3nc(NCCO)nc(Nc4ccc(Cl)cc4)n3)cc1)=N2 (stereo not given)" label=y
molecule="CCCCN1C(=O)/C(=c2\\sc3n(c2=O)C2C(NN=3)N(CC)C(=O)N2CC)c2cc(Cl)ccc21 (stereo not given)" label=n
molecule=O=C(CCN1C(=O)/C(=C/c2ccccc2)SC1=S)N1CCOCC1 label=n
molecule="COc1cc2nc(-c3ccc(C(F)(F)F)cc3)cc(OCCCNCC3CCCO3)c2cc1OC (stereo not given)" label=n
molecule=Fc1ccc(-c2cc3nc(C(Cl)Cl)nc(-c4ccc(Cl)cc4)n3n2)cc1 label=y
molecule=O=C(CCCN1C(=O)/C(=C/c2ccccc2F)SC1=S)N1CCOCC1 label=n
molecule=OC1CCN(CCCOc2c3ccccc3nc3c2oc2ccc(Cl)cc23)CC1 label=n
molecule="COC(=O)C(Cc1ccccc1)NS(=O)(=O)/N=C1\\NC(=O)NC1=C(Cl)Cl (stereo not given)" label=n

Query: Would you mind telling me which call this test gave C#Cc1nc(C2=C(C)C(O)CC2)cs1 (stereo not given) ?
Reply: n

Query: # fetch the recorded call for C=C1CC[C@H]2[C@@](C)(CCC3OC(c4ccc(OCc5cn(C6CC(OC(C)=O)C(OC(C)=O)C(COC(C)=O)O6)nn5)cc4)OC[C@]32C)[C@@H]1/C=C/C1=CCOC1=O (stereo not given in full) here
Reply: n

Query: Record request — test call for CCCC(=O)NC(c1cccc(N(C)C)c1)c1cc(C)c2cccnc2c1O (stereo not given)
Reply: n

Query: State the result this test recorded for "O=C(CSc1nc2sc3c(c2c(=O)n1-c1ccc(Cl)cc1)CCCC3)NNC(=O)Nc1ccc(Cl)c(C(F)(F)F)c1" .
Reply: n

Query: Dear colleague, could you share the recorded outcome for "Cn1cc(-c2cc(N)n3nc(-c4cn(C)c5ccc(F)cc45)cc3n2)c2cc(F)ccc21" when you have a moment?
Reply: n

Query: Look up the recorded call for "Cn1c(SCC(=O)c2cccs2)nc2ccccc2c1=O" in this test.
Reply: n

Query: Test call for this molecule, please: "COc1cc(N=Cc2sc(Nc3nccs3)nc2O)cc(OC)c1OC"
Reply: n

Query: How was "O=C(Nc1nc2ccc(O)cc2s1)c1cccc(C(F)(F)F)c1" classified in this test?
Reply: n

Query: Write down the call the test reported for this molecule. Item: "O=C1Nc2cc(Cl)ccc2/C1=C\c1ccc(OCc2ccc([N+](=O)[O-])cc2)cc1"
Reply: n

----------
Test system: HCT-116 colon
Experiment: NCI-60 one-dose screen, 48 h
Details: 10 µM unless noted
About 83,000 compounds went through this panel and 20% of them were active in at least one assay; those are over-represented in the sample as a whole. Active and inactive are the calls of the source. Rule for the calls: active = growth percent below 10; inactive = the rest.
The reply should name one outcome from label 1 for active, label 0 for inactive

Previously resolved entries follow.
molecule=Nc1c(C(=O)c2ccc(Br)cc2)oc2nc(-c3cnccn3)cc(-c3cccs3)c12 label="label 0"
molecule=CN(C)S(=O)(=O)c1oc(-c2ccccc2)nc1C#N label="label 0"
molecule="COc1cc(-c2ccc3ncnc(NC(C)c4ccccc4)c3c2)cnc1OC (stereo not given)" label="label 0"
molecule=Clc1ccc2c(NCCCN3CCOCC3)c3oc4ccccc4c3nc2c1 label="label 0"
molecule=CN1CCN(Cc2ccc(NC(=O)c3cncc(C#Cc4cnc5ccc(N6CCSCC6)nn45)c3)cc2C(F)(F)F)CC1 label="label 1"
molecule=COc1ccc(NC2=CC(=O)C(C)=C(C)C2=O)cc1 label="label 0"
molecule=CS(=O)(=O)c1ccc(-c2nc3ccccn3c2C=Nc2ccc(Cl)cc2)cc1 label="label 0"
molecule=COc1ccc(C(=O)/C=C/c2ccc(Oc3nc(NCCO)nc(N4CCOCC4)n3)c(OC)c2)cc1 label="label 0"
molecule=O=C(CSc1nc2sc3c(c2c(=O)n1-c1ccc(Cl)cc1)CCCC3)N/N=C/c1ccc(F)cc1 label="label 0"

# ---- query molecule ----
Query: Short answer needed: outcome of this test for "Cc1nc(-c2cc3ccccc3oc2=O)ccc1C(=O)/C=C/c1ccc(N2CCOCC2)cc1" ?
Reply: label 0

----------
System: M14 melanoma
Experiment: NCI-60 one-dose screen, 48 h
Settings: 10 µM unless noted
Experimental: Growth inhibition of the M14 human tumor cell line is measured as a screen for anti-cancer activity. Cells are grown in 96 well plates and exposed to the test compound for 48 hours. Compounds are tested at a single concentration, which is 10^-5 M for most compounds. The reported endpoint is percent growth (GI% or GIPRCNT), where numbers from 0 - 100% represent growth inhibition, and numbers from -100% - 0 represent cell death. For example, a value of 40 represents 60% growth inhibition. […]
About 83,000 compounds went through this panel and 20% of them were active in at least one assay; those are over-represented in the sample as a whole. Active and inactive are the calls of the source. How the source made its calls: active means growth percent below 10; inactive means the rest.
Please answer using one outcome listed in active, inactive

compound=O=C(CSc1nc2sc3c(c2c(=O)n1-c1ccc(Cl)cc1)CCCC3)N/N=C/c1ccc(F)cc1 label=inactive
compound=CN(C)CCCOc1c2ccc(Cl)cc2nc2c1oc1ccc(Cl)cc12 label=active

Moving on to another compound below.
Query: What outcome does the record of this test show for "Cc1c(NC(=O)CSc2nc3sc4c(c3c(=O)n2-c2ccc(Cl)cc2)CCCC4)c(=O)n(-c2ccccc2)n1C" ?
Reply: inactive

----------
System: ACHN renal
Assay: NCI-60 one-dose screen, 48 h (100 = growth as untreated, 0 = no growth, -100 = all killed)
Details: 10 µM unless noted
The panel holds about 83,000 compounds, 20% with a hit somewhere; the sample as a whole holds those more often.
MEASUREMENT_TYPE: growth (%)
Numbers only, in %.

Provide growth values for the following items, in order.
1. COc1cc(-c2nc3ccc(-c4nnc(SCC(=O)Nc5ccc(C(=O)/C=C/c6ccc(Cl)cc6)cc5)o4)cc3[nH]2)cc(OC)c1OC
2. Cc1sc2c(c1C)c(=O)nc1c(-c3nc(-c4ccc(F)cc4)no3)n[nH]n12
3. COc1cccc(-c2nn(-c3ccccc3)cc2-c2ccnc(N3CCN(C(=O)Nc4ccc(F)cc4)CC3)c2)c1
4. O=C1Nc2cc(Cl)ccc2/C1=C\c1ccc(OCc2ccc([N+](=O)[O-])cc2)cc1
5. CCOC(=O)c1c(Nc2ccccc2)nn2c(N)c(C#N)c(-c3ccc(OC)cc3)nc12

Reply:
1: 96.8; 2: 96.5; 3: 67.6; 4: 43; 5: 38.5

Hi! Can you tell me growth for each of these compounds?
1. NC(=O)c1cc(-c2ccc3ncnc(N4CCc5cc(F)c(Cl)cc54)c3c2)cnc1N
2. COc1ccc(Cc2nn(CC(=O)N/N=C/c3ccc(Cl)cc3)c(=O)c3c(C)noc23)cc1
3. O=C(N/N=C/c1cccs1)c1[nH]c2ccc(Br)cc2c1-c1ccccc1
4. O=C(CSc1nnc(-c2ccc3nc(-c4ccc(Cl)cc4)[nH]c3c2)o1)Nc1ccc(C(=O)/C=C/c2ccc(Cl)cc2)cc1

Reply:
1. 23.1
2. 72.7
3. 28.5
4. 98.1
